measuredOn: human mAChR M4 (Homo sapiens)
Construct: expressed in transfected cells; host or cells: CHO-K1 (American Type Culture Collection), stably expressing hM4 and Gqi5
testName: mAChR M4 cell-based functional assay: calcium mobilization (Fluo-4, FDSS), potentiation of EC20 acetylcholine response in hM4-Gqi5 CHO-K1 cells
experimentalParameters: CHO-K1, % ACh maximum at 30 μM; human M4
observationType: Emax at 30 µM (%)

{"structureNotation": "COc1ccsc1-c1cnc2c(c1)CN(c1nn3c(=O)cc(C(F)F)nc3c(C)c1C)CC2", "observationType": "Emax at 30 µM", "dataValue": 79}
{"structureNotation": "Cc1ccc(-c2cnc3c(c2)CN(c2nn4c(=O)cc(C(F)(F)F)nc4cc2C)CC3)cn1", "observationType": "Emax at 30 µM", "dataValue": 104}
{"structureNotation": "Cc1cc(=O)n2nc(N3CCc4ncc(-c5cnn(CCN(C)C)c5)cc4C3)c(C)c(C)c2n1", "observationType": "Emax at 30 µM", "dataValue": 84}
{"structureNotation": "Cc1cc2nc(C(=O)N3CC4(COC4)C3)cc(=O)n2nc1N1CCc2ncc(C(F)(F)F)cc2C1", "observationType": "Emax at 30 µM", "dataValue": 92}

----------
pEC50 by entry:
measuredOn: human mAChR M4 (Homo sapiens)
testName: mAChR M4 cell-based functional assay: calcium mobilization (Fluo-4, FDSS), potentiation of EC20 acetylcholine response in hM4-Gqi5 CHO-K1 cells
experimentalParameters: potentiation of EC20 acetylcholine response, calcium mobilization, human M4
pEC50: −log10 of the molar value.

{"compound": "Cc1c(N2CCc3ncc(-c4cnn(CCN(C)C)c4)cc3C2)nn2c(=O)cc(C(F)F)nc2c1C [Compound 1-308]", "pEC50": 6.50}
{"compound": "COc1cc(C)c(-c2cnc3c(c2)CN(c2nn4c(=O)ccnc4c(C)c2C)CC3)cn1 [Compound 1-139]", "pEC50": 7.11}
{"compound": "Cc1cc2ncc(Cl)c(=O)n2nc1N1CCc2ncc(-c3cnn(C4CC4)c3)cc2C1 [Compound 1-12]", "pEC50": 6.90}
{"compound": "COCc1cc(=O)n2nc(N3CCc4ncc(-c5cnccc5C)cc4C3)c(C)c(C)c2n1 [Compound 1-228]", "pEC50": 7.47}

----------
measuredOn: human mAChR M4 (Homo sapiens, UniProt P08173)
Construct: expressed in transfected cells; host or cells: CHO-K1 (American Type Culture Collection), stably expressing hM4 and Gqi5
testName: mAChR M4 cell-based functional assay: calcium mobilization (Fluo-4, FDSS), potentiation of EC20 acetylcholine response in hM4-Gqi5 CHO-K1 cells
experimentalParameters: CHO-K1, % ACh maximum at 30 μM; human M4
Entry flag: YES if Emax at 30 µM reaches 80%; NO if it does not.

{"structureNotation": "Cc1cc2nccc(=O)n2nc1N1CCc2ncc(Nc3c(F)cncc3F)cc2C1", "measuredOn": "human mAChR M4 (Homo sapiens, UniProt P08173)", "label": "YES"}
{"structureNotation": "Cc1cc(F)ncc1-c1cnc2c(c1)CN(c1nn3c(=O)ccnc3cc1C)CC2", "measuredOn": "human mAChR M4 (Homo sapiens, UniProt P08173)", "label": "YES"}
{"structureNotation": "COc1cc(C)c(-c2cnc3c(c2)CN(c2nn4c(=O)cc(C)nc4c(C)c2C)CC3)cn1", "measuredOn": "human mAChR M4 (Homo sapiens, UniProt P08173)", "label": "YES"}
{"structureNotation": "Cc1cc2nccc(=O)n2nc1N1CCc2ncc(-c3ccc(C(F)(F)F)nc3)cc2C1", "measuredOn": "human mAChR M4 (Homo sapiens, UniProt P08173)", "label": "NO"}
{"structureNotation": "Cc1cc2nccc(=O)n2nc1N1CCc2ncc(-c3ccccc3C3CC3)cc2C1", "measuredOn": "human mAChR M4 (Homo sapiens, UniProt P08173)", "label": "NO"}
{"structureNotation": "Cc1cc(=O)n2nc(N3CCc4ncc(N5CCCn6nccc65)cc4C3)c(C)cc2n1", "measuredOn": "human mAChR M4 (Homo sapiens, UniProt P08173)", "label": "YES"}
{"structureNotation": "Cc1cc2nccc(=O)n2nc1N1CCc2ncc(-c3scnc3C)cc2C1", "measuredOn": "human mAChR M4 (Homo sapiens, UniProt P08173)", "label": "YES"}
{"structureNotation": "Cc1cc2ncc(C3=CCCC3)c(=O)n2nc1N1CCc2ncc(C(F)(F)F)cc2C1", "measuredOn": "human mAChR M4 (Homo sapiens, UniProt P08173)", "label": "NO"}
{"structureNotation": "Cc1ccc(Nc2cnc3c(c2)CN(c2nn4c(=O)ccnc4cc2C)CC3)c(F)n1", "measuredOn": "human mAChR M4 (Homo sapiens, UniProt P08173)", "label": "YES"}
{"structureNotation": "Cc1c(N2CCc3ncc(-c4ccccc4F)cc3C2)nn2c(=O)ccnc2c1C", "measuredOn": "human mAChR M4 (Homo sapiens, UniProt P08173)", "label": "NO"}
{"structureNotation": "Cc1cc(=O)n2nc(N3CCc4ncc(-c5cnn(C6CCOCC6)c5)cc4C3)c(C)c(C)c2n1", "measuredOn": "human mAChR M4 (Homo sapiens, UniProt P08173)", "label": "NO"}
{"structureNotation": "Cc1cc(-c2cnc3c(c2)CN(c2nn4c(=O)cc(C)nc4c(C)c2C)CC3)ccn1", "measuredOn": "human mAChR M4 (Homo sapiens, UniProt P08173)", "label": "YES"}

----------
measuredOn: human mAChR M4 (Homo sapiens)
Construct: expressed in transfected cells; host or cells: CHO-K1 (American Type Culture Collection), stably expressing hM4 and Gqi5
Sequence (P08173 1-479): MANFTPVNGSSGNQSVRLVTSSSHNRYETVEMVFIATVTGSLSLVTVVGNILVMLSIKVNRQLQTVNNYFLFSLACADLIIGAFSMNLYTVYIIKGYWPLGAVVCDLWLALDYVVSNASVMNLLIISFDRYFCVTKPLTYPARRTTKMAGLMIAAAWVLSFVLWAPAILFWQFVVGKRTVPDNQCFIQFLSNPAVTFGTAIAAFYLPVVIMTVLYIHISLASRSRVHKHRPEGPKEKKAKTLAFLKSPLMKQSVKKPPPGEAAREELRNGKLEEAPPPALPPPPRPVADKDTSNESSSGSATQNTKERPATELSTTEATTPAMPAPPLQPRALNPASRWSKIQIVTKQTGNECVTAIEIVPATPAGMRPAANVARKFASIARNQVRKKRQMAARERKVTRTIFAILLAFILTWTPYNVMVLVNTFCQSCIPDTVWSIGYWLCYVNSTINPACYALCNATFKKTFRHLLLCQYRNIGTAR
testName: mAChR M4 cell-based functional assay: calcium mobilization (Fluo-4, FDSS), potentiation of EC20 acetylcholine response in hM4-Gqi5 CHO-K1 cells
experimentalParameters: CHO-K1, % ACh maximum at 30 μM; human M4

{"molecule": "COCc1cc(=O)n2nc(N3CCc4ncc(-c5ncc(F)cc5F)cc4C3)c(C)cc2n1 [Compound 1-382]", "unitSymbol": "%", "Emax at 30 µM": 79}
{"molecule": "Cc1cc2nccc(=O)n2nc1N1CCc2ncc(Nc3cncc(C(F)(F)F)c3)cc2C1 [Compound 2-138]", "unitSymbol": "%", "Emax at 30 µM": 87}
{"molecule": "Cc1ccc(-c2cnc3c(c2)CN(c2nn4c(=O)cc(C(C)C)nc4c(C)c2C)CC3)cn1 [Compound 1-108]", "unitSymbol": "%", "Emax at 30 µM": 94}
{"molecule": "Cc1cc2nc(C(F)F)cc(=O)n2nc1N1CCc2ncc(N3CCOc4ncccc43)cc2C1 [Compound 2-29]", "unitSymbol": "%", "Emax at 30 µM": 90}
{"molecule": "Cc1cc(=O)n2nc(N3CCc4ncc(-c5ccc(N(C)C)nc5)cc4C3)c(C)c(C)c2n1 [Compound 1-121]", "unitSymbol": "%", "Emax at 30 µM": 83}
{"molecule": "Cc1cc(=O)n2nc(N3CCc4ncc(-c5cnc6ccccc6c5)cc4C3)c(C)c(C)c2n1 [Compound 1-120]", "unitSymbol": "%", "Emax at 30 µM": 65}
{"molecule": "Cc1cc(=O)n2nc(N3CCc4ncc(-c5ccco5)cc4C3)c(C)cc2n1 [Compound 1-301]", "unitSymbol": "%", "Emax at 30 µM": 91}
{"molecule": "Cc1cc2nccc(=O)n2nc1N1CCc2ncc(Nc3ccc(F)nc3)cc2C1 [Compound 2-87]", "unitSymbol": "%", "Emax at 30 µM": 99}
{"molecule": "Cc1cc2nccc(=O)n2nc1N1CCc2ncc(-c3ccnn3C(C)C)cc2C1 [Compound 1-396]", "unitSymbol": "%", "Emax at 30 µM": 60}
{"molecule": "Cc1c(N2CCc3ncc(-c4cnn(C)c4)cc3C2)nn2c(=O)ccnc2c1C [Compound 1-62]", "unitSymbol": "%", "Emax at 30 µM": 89}
{"molecule": "Cc1c(N2CCc3ncc(-c4ccc(C(F)(F)F)nc4)cc3C2)nn2c(=O)cc(C(F)F)nc2c1C [Compound 1-93]", "unitSymbol": "%", "Emax at 30 µM": 90}
{"molecule": "Cc1c(N2CCc3ncc(-c4cnn(CCN(C)C)c4)cc3C2)nn2c(=O)cc(C(F)F)nc2c1C [Compound 1-308]", "unitSymbol": "%", "Emax at 30 µM": 78}
{"molecule": "Cc1cc(F)c(F)c(-c2cnc3c(c2)CN(c2nn4c(=O)cc(C(F)F)nc4c(C)c2C)CC3)c1 [Compound 1-284]", "unitSymbol": "%", "Emax at 30 µM": 77}
{"molecule": "Cc1cc2nccc(=O)n2nc1N1CCc2ncc(Nc3cccc4c3OCCO4)cc2C1 [Compound 2-72]", "unitSymbol": "%", "Emax at 30 µM": 69}
{"molecule": "Cc1c(N2CCc3ncc(N4CCCS4(=O)=O)cc3C2)nn2c(=O)ccnc2c1C [Compound 2-146]", "unitSymbol": "%", "Emax at 30 µM": 78}
{"molecule": "Cc1cc(=O)n2nc(N3CCc4ncc(-c5cncc(C(F)(F)F)c5)cc4C3)c(C)c(C)c2n1 [Compound 1-124]", "unitSymbol": "%", "Emax at 30 µM": 84}

Hello, the source for this data is patent US20250101041A1, in case you need it.
